target: Protein farnesyltransferase (Homo sapiens, UniProt P49354+P49356); experiment: Inhibition of [3H]FPP incorporation into recombinant human K-Ras by Farnesyltransferase
endpoint: IC50 (nM)
Please give a number only; it is taken to be in nM.

Below are worked cases with known answers.
[[record]]
mol_smiles = "CCS(=O)(=O)C[C@@H]1CN(c2cccc(Cl)c2)C(=O)CN1Cc1cncn1Cc1ccc(C#N)cc1"
assayed_system = "Protein farnesyltransferase (Homo sapiens, UniProt P49354+P49356)"
unit_info = "nM"
numeric_readout = 0.18

[[record]]
mol_smiles = "CCCC[C@H]1CN(C(=O)c2cccc3ccccc23)CCN1Cc1cncn1Cc1ccc(C#N)cc1"
assayed_system = "Protein farnesyltransferase (Homo sapiens, UniProt P49354+P49356)"
unit_info = "nM"
numeric_readout = 21

[[record]]
mol_smiles = "CCCC[C@H]1CN(c2cccc(C)c2C)C(=O)CN1Cc1cncn1Cc1ccc(C#N)cc1"
assayed_system = "Protein farnesyltransferase (Homo sapiens, UniProt P49354+P49356)"
unit_info = "nM"
numeric_readout = 0.44

[[record]]
mol_smiles = "CCCC[C@H]1CN(C(=O)c2cccc3ccccc23)CCN1Cc1cncn1Cc1ccccc1"
assayed_system = "Protein farnesyltransferase (Homo sapiens, UniProt P49354+P49356)"
unit_info = "nM"
numeric_readout = 495

[[record]]
mol_smiles = "C[C@@H]1CN(c2cccc(Cl)c2)C(=O)CN1Cc1cncn1Cc1ccc(C#N)cc1"
assayed_system = "Protein farnesyltransferase (Homo sapiens, UniProt P49354+P49356)"
unit_info = "nM"
numeric_readout = 80

[[record]]
mol_smiles = "CCCC[C@H]1CN(C(=O)c2cccc3ccccc23)CCN1C[C@@H](N)S"
assayed_system = "Protein farnesyltransferase (Homo sapiens, UniProt P49354+P49356)"
unit_info = "nM"
numeric_readout = 1

[[record]]
mol_smiles = "C[C@H]1CN(c2cccc(Cl)c2)C(=O)CN1Cc1cncn1Cc1ccc(C#N)cc1"
assayed_system = "Protein farnesyltransferase (Homo sapiens, UniProt P49354+P49356)"
unit_info = "nM"
numeric_readout = 9

[[record]]
mol_smiles = "CCCC[C@H]1CN(c2cccc(Cl)c2)C(=O)CN1Cc1cncn1Cc1ccc(C#N)cc1"
assayed_system = "Protein farnesyltransferase (Homo sapiens, UniProt P49354+P49356)"
unit_info = "nM"
numeric_readout = 0.11


Pending compound:
IC50 measured on CCCC[C@H]1CN(C(=O)c2cccc3ccccc23)CCN1Cc1c[nH]cn1 = 7300
